# Target system: UniProt:Q03530
# Sequence (Q03530 whole entry): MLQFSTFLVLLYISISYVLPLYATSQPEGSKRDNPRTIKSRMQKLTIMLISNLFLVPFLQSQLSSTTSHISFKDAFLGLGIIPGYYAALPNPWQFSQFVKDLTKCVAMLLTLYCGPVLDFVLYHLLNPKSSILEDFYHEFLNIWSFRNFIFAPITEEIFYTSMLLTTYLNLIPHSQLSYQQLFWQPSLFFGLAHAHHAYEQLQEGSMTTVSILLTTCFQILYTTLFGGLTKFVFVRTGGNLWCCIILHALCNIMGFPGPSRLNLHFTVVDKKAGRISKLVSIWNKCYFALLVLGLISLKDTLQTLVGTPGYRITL
# Assay type: biochemical
Active and inactive are the calls of the source.
Pick one and only one: true (1) (active), false (0) (inactive)

Record excerpt, results attached:
O=[N+]([O-])c1ccc(-c2c[nH]c(SC(c3ccccc3)c3ccccc3)n2)cc1    true (1)
CC1(C(=O)N(CC(=O)NC2CCCC2)Cc2ccco2)CC(=O)N=C2C=CC=CN21 (stereo unspecified)    true (1)
C[n+]1ccc(-c2ccccc2)c2ccccc21    true (1)
CCCCC[n+]1cccc2c3ccccc3ccc21    false (0)
Cc1c(Cc2ccccc2)c(=O)oc2c(C)c(OCC(=O)N3CCC(C(=O)O)CC3)ccc12    true (1)

Note: attention shifts to another entry.
Hi, do you know how `COc1ccc(-c2nc(CC(=O)O)cs2)cc1OC` came out in this test?
true (1)

* * *

Field: EC50. Provide a value for each of the compounds that follow.
# Experiment summary: NIH-3T3 fibroblast cytotoxicity, dose response, cytotoxicity control, cell-based, fluorescence, Alamar Blue, secondary assay (AID 2327);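 further: NIH-3T3 mouse fibroblasts cultured with fluconazole at 8 µg/mL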
# Assay type: functional
Active and inactive are the calls of the source.

Known EC50 results, listed for orientation:
O=C(Sc1cccc2cccnc12)c1ccccc1Br    31.8 µM (active)
COCCCN1C(=O)C(O)=C(C(=O)c2ccc(OCC(C)C)cc2C)C1c1cccnc1 (configuration not stated)    > 150 µM (inactive)
N#C/C(C(N)=O)=c1/ccc2c(c1)N1C3=C(CCCC3)CC3CCCCC31N=2 (configuration not stated)    8.74 µM (inconclusive)
COCC(=O)Nc1nc2n(n1)C(c1ccccc1Cl)CC(c1ccc(OC)cc1)N2 (configuration not stated)    > 160 µM (inactive)
COc1cc(/C=C(\C#N)c2nc3ccccc3[nH]2)ccc1O    49.9 µM (active)

Need EC50 for each of these compounds.
1. COC(=O)C1=NN(C(=O)c2ccc(Cl)cc2)C(O)(c2ccccc2)C1 (configuration not stated)
2. COc1ccc(-[n+]2c(-c3ccccc3)cc(-c3ccccc3)cc2-c2ccccc2)cc1.[O-][Cl+3]([O-])([O-])[O-]

1. 29.9 µM (active)
2. 40.7 µM (active)

* * *

# Target system: Heat shock factor protein 1 (Mus musculus)
# Sequence (P38532 whole entry): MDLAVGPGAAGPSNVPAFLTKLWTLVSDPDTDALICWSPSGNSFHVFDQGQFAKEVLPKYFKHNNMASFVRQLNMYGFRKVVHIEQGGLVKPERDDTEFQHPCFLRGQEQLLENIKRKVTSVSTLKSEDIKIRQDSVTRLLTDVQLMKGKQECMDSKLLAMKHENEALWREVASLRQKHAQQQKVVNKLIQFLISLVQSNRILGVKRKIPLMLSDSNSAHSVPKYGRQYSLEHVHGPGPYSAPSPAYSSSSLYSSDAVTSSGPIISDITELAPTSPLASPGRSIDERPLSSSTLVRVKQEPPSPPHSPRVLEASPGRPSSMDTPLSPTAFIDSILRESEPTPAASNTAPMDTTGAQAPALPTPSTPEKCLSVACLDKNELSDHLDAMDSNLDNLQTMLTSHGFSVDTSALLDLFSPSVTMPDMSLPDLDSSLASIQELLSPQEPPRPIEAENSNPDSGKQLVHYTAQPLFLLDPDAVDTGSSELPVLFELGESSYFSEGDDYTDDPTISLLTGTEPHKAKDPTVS
# Experiment summary: inhibition of MG132-induced HSE-luciferase signal, confirmation, cell-based, NIH3T3, luminescence, dose retest (AID 2382);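 further: NIH3T3 fibroblasts with HSF1-driven luciferase reporter stressed by proteasome inhibitor MG132; luminescence from HSF1-driven luciferase expression after 8 hours of MG132 stress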
# Format: functional
Calls of active or inactive are those of the source.
Recorded metric: EC50

CCOC(=O)CNC(=O)CSc1nnc(C)c(O)n1    > 195 µM (not active)
COC(=O)C1=CN(Cc2ccc(OC)c(OC)c2)C=C(C(=O)OC)C1c1ccccc1F    > 195 µM (not active)
COc1c(N2CCN(C(S)=NC3CC4CCC3C4)C(C)C2)c(F)cc2c(=O)c(C(=O)O)cn(C3CC3)c12 (configuration not stated)    17 µM (active)
Fc1ccc(CNCc2ccccc2Cl)cc1    > 195 µM (not active)
CN(C)c1ccc(C2Nc3ccccc3C(=O)N2CCCN2CCOCC2)cc1 (configuration not stated)    2.02 µM (active)
O=C(CN1CCCCC1)Nc1cccc2c1OCO2    > 195 µM (not active)
CCOc1ccc(-c2nc(CSCC(=O)NC3CC3)c(C)o2)cc1    0.241 µM (active)
Cc1ccc(OCC(=O)NC(=S)Nc2ccccn2)c(Br)c1    < 0.16 µM (active)

Provide each entry's EC50 from the list below.
1. CCNC(S)=NNC(=O)c1cc(-c2ccc(OCC)cc2)nc2ccccc12
2. CCN(C(=O)Cn1c([N+](=O)[O-])cnc1C)c1ccccc1
3. CC(C)c1ccccc1-n1c(S)nnc1-c1cccnc1
4. CC1C(=O)C(C)C(c2ccco2)NC1c1ccco1 (configuration not stated)
5. Cc1ccc(F)c(NC(=O)c2ccc(Cn3cc(Cl)cn3)cc2)c1
6. CC(C)N1C(=O)CN(C2CCCCCC2)C(=O)C1c1ccccc1F (configuration not stated)

1: 19 µM (active); 2: > 195 µM (not active); 3: > 195 µM (not active); 4: > 195 µM (not active); 5: > 195 µM (not active); 6: 77.6 µM (active)

Provide EC50 for all items below, preserving their order.
1. COc1ccc(-c2cn(-c3ccccc3)nc2CO)cc1
2. COc1ccc(N2CCN(CC(O)COCCOc3ccc(Br)cc3)CC2)cc1 (configuration not stated)

["> 195 µM (not active)", "> 195 µM (not active)"]

Returns the measured EC50 for the input compound. Input: `COC(=O)c1ccc(N2CCN(C(C)=O)CC2)c(NC(=O)COc2ccccc2C)c1`
> 195 µM (not active)
